Reported interaction score is given for each of the following binders.
- Target: T1, APC3354-AA
- T1 chain: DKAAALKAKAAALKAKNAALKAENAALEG
- Method Summary: two-hybrid library CCmax;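 note: natural log of median RNA to DNA barcode read ratio; higher means stronger binding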
- Experimental Context: mean of both orientations
Lab note: jot the number down without any unit.

See these solved cases before continuing.
DEAAALEAKLAANKAELAANEAKLAAIKG [APC2981-AA]; -2.3
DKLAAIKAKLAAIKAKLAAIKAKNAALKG [APC1115-AA]; -1.93
DKAAALKAKAAALKAEAAALEAKAAALKG [APC3323-AA]; -1.64

The binder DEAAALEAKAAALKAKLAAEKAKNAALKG [APC2375-AA] showed interaction score equal to -1.67

Per the record, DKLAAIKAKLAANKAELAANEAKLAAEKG [APC1987-AA] has interaction score of -1.64

Query DEAAALEAELAANEAKLAAIKAKLAAIKG [APC2811-AA] yields interaction score of -1.67

The measured interaction score associated with DKAAALKAEAAALEAELAAEEAKNAALKG [APC3265-AA] reads -1.86

So for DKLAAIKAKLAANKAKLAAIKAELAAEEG [APC1916-AA] , the logged interaction score turned out to be -1.8

Looking up DEAAALEAKNAALKAKNAALKAELAAEEG [APC2556-AA] , I found its interaction score recorded as -1.9

Short answer for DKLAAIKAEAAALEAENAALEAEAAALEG [APC1242-AA] : interaction score was -1.74

interaction score recorded for this binder, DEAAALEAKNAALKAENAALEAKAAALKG [APC2543-AA] , is -1.72

The recorded interaction score for DELAAIEAEAAALEAEAAALEAEAAALEG [APC222-AA] is -1.41

# binder DEAAALEAENAALEAKLAAEKAENAALEG [APC2474-AA] ; its interaction score = -1.35

Reported interaction score ( DEAAALEAKLAAEKAEAAALEAENAALEG [APC2724-AA] ) = -1.48

Entry under test: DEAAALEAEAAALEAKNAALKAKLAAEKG [APC2257-AA] . Its interaction score was -1.45
